Data origin, for the record: PubChem BioAssay (NCI)

# System: DU-145 prostate
# Measurement Protocol: NCI-60 one-dose screen, 48 h (100 = growth as untreated, 0 = no growth, -100 = all killed)
# Reported Conditions: 10 µM unless noted
This is part of a sample that, as a whole, favours compounds with a hit. Of some 83,000 tested, about 20% had one in any assay.
Assign growth to each entry below.
The reply should contain only the number, in %.

Using the record for COc1ccc(C2=C(c3ccccc3)c3ccc(OC(C)=O)cc3OC2(C)C)cc1 , report its growth.
105

Now consider Cc1ccc(/C=C/C(=O)c2ccc(N)cc2)c(C)c1 and answer again.
78.3

Now consider Cc1ccc(-c2c(Br)c(OC(=O)CO[C@@H]3C[C@H](C)CC[C@H]3C(C)C)c(-c3ccc(C)cc3C)c(Br)c2OC(=O)CO[C@H]2C[C@@H](C)CC[C@@H]2C(C)C)c(C)c1 and answer again.
106

Now consider COc1ccc(-c2nc(SCC(C)C)nc(N/N=C(/C)c3ccc(OC)c(OC)c3)c2C#N)cc1 and answer again.
87.7

Now consider Nc1cc(N)c2cccnc2c1O and answer again.
72.7

Now consider NC(=S)N/N=C(\c1ccc(Cl)cc1)C1CC1 and answer again.
99

Now consider COc1ccc(-c2nc(N/N=C/c3cccc(Br)c3)nc(N3CCOCC3)c2C#N)cc1 and answer again.
49.8

Now consider O=C(Nc1nc(-c2ccccc2Cl)cs1)c1cc(-c2ccccc2)nc2ccc(Cl)cc12 and answer again.
77.8

Now consider O=C(Nc1ccc2ncnc(Nc3ccc(Oc4cccc(F)c4)c(Cl)c3)c2c1)c1ccc(CN2CCOCC2)cc1 and answer again.
39.6
